Attribution: PubChem BioAssay

Test: RAM pathway blockade in budding yeast – dse1pr::URA3 reporter, 5-FOA selection, pilot screen (AID 869);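 note: 0% = DMSO wells with no growth and 100% = 10 µM 1-NA-PP1 with full growth; RAM network block rescues cells from 5-FOA so hits raise OD615 growth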
Conditions: S. cerevisiae dse1pr::URA3 5-FOA growth, OD615, 2 d; at 10 µM; stronger effect = higher value; strain carries analog-sensitive mutant Cbk1 kinase
TEST_READOUT: inhibition (%)
Supply the numeric figure in %, leaving out any unit text.

Study these solved cases before continuing.
CCOc1ccc(N(CC(=O)OC)S(=O)(=O)c2ccc(OC)c(OC)c2)cc1    0.39
C=CCSC1=C(C#N)C(c2ccc(C(C)C)cc2)CC(=O)N1 (stereo not given)    0.04
CCOC(=O)CN1CC23C=CC(O2)C(C(=O)Nc2ccc(OCC)cc2)C3C1=O (stereo not given)    2.22
Cc1ccc(-c2oc3ccccc3c(=O)c2O)cc1    2.66
Cc1ccnc(NC(=O)C2CCC(CNc3c(N4CCCC4)c(=O)c3=O)CC2)c1 (stereo not given)    0.595

*Q* Item Cc1ccc(C)c(N2CCN(CCCNC(=O)Cn3cc4c(n3)CCC(C)C4)CC2)c1 (stereo not given) has what recorded inhibition?
*A* 1.44

*Q* Let us now turn to CCn1cc(C2=NOC(C(=O)Nc3c(C)nn(Cc4ccc(F)cc4)c3C)C2)c(C)n1 (stereo not given)
*A* 1.9

*Q* Entry O=C(Nc1c(C(=O)O)oc2ccc(Br)cc12)c1ccccc1 please
*A* 2.95

*Q* Quick one: COC(=O)c1ccc(OCC(O)CN2CCC(C)CC2)cc1 (stereo not given)
*A* 0.835
